# TARGET_UNDER_TEST: T1, Sortilin SORTECDBAP_hB45678 (human/tetraodon chimera)
# T1 construct: Shuffle construct: chimeric human/tetraodon Sortilin ECD with BAP tag
# T1 chain: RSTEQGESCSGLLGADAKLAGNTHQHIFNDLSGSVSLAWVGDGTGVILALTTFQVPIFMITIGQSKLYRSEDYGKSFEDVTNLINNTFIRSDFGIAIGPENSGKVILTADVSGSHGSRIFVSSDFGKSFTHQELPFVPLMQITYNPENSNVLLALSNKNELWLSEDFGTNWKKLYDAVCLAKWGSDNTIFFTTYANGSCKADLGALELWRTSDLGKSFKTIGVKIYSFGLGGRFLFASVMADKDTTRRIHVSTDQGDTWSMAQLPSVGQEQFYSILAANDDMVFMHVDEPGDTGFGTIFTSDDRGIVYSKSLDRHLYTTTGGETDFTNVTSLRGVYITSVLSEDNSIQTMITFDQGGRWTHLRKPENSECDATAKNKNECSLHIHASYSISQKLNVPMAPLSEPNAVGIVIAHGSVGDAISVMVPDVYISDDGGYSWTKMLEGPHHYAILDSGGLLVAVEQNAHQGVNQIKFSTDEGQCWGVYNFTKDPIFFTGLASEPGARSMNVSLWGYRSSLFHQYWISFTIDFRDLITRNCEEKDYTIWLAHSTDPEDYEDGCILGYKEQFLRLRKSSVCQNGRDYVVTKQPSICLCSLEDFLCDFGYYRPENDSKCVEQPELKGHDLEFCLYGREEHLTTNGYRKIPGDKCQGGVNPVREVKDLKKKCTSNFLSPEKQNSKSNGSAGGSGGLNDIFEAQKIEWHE
# EXPERIMENT: BLI (Octet384RED)
Could you please report measured EC50 for the items listed next?

Measured EC50 of IgG1-6003-408 (antibody, V domains shown, also called Antibody 6003-408) VH: EVQLVESGGGLVKPGGSLRLSCAASGFTFSSYSMNWVRQAPGKGLEWVSSISSSSSYIYYADSVKGRFTISRDNAKNSLYLQMNSLRAEDTAVYYCARRRIAAAGTGYGAFDIWGQGTMVTVSS VL: ARQLTQSPSSLSASVGDRVTITCRASQGITSALAWYQQKPGKVPKLLIYDASSLESGVPSRFSGSGSGTDFTLTISSLQPEDFATYYCQQFNGYPMFSFGQGTKLEII : 2.58 ng/mL

Measured EC50 of Antibody 6003-056 (antibody, human IgG1, V domains shown) VH: EVQVLESGGGLVQPGGSLRLSCVASGFTFSSYAMHWVRQAPGKGLEWVSAISGRGGSTYYADSVKGRFTISRDNSKNTLYLQMNSLRAEDTAVYYCAIIPSLYWYFDLWGRGTLVTVSS VL: EIVLTQSPATLSLSPGERATLSCRASQSVSSFLAWYQQKPGQAPRLLIYDASNRATGIPARFSGSGSGTDFTLTISSLEPEDFAVYYCQQRSNWPLTFGGGTKVEIK : 1.1 ng/mL

Measured EC50 of Antibody 6003-030 (antibody, human IgG1, V domains shown, Human antibody (HuMab); also called antibody 30; mAb30) VH: EVQVLESGGGLVQPGGSLRLSCAASGFTFSSYAMSWVRQAPGKGLEWVSTISGRGGNTYYADSVKGRFTISRDNSKNTLYLQMDSLRAEDTAVYYCAIIPSLYWYFDLWGRGTLVTVSS VL: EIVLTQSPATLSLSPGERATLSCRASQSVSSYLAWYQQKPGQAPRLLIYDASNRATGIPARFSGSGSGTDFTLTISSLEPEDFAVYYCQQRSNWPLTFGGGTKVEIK : 0.85 ng/mL
